# System: Rat liver homogenates
# experimental.details: Antioxidant activity: FeSO₄-induced peroxide production in rat liver homogenates (thiobarbituric acid reaction)
# Type: biochemical
# settings: rat liver homogenate incubated with FeSO₄; peroxide determined by thiobarbituric acid reaction, malonaldehyde as standard; read-out: IC₅₀
experimental.readout: pIC50
Entry type: numeric. Quantity: pIC50, the -log10 of concentration in molar units.

Record CCOP(=O)(OCC)C(=Cc1cc(C(C)(C)C)c(O)c2ccccc12)P(=O)(OCC)OCC , field pIC50: 5.82

pIC50 measured on CC(C)OP(=O)(OC(C)C)C(=Cc1cc(C(C)(C)C)c(O)c2ccccc12)P(=O)(OC(C)C)OC(C)C = 6.15

// pIC50 value for CC(C)OP(=O)(OC(C)C)C(=Cc1cc(C(C)(C)C)c(O)c2c1CCCC2)P(=O)(OC(C)C)OC(C)C : 5.60

pIC50 for CCOP(=O)(OCC)C(=Cc1cc(C(C)(C)C)c(O)c2c1CCCC2)P(=O)(OCC)OCC is 5.15
